# Tested on: Huh7
# assay_overview: Huh7 viability assay
# Type: cell-based
# conditions: Homo sapiens, Huh-7; Huh7, FGF19-overexpressing HCC cell line, 72 h, CCK-8
quantity: IC50 (nM)

- smiles_record: "C=CC(=O)Nc1ccccc1Nc1ncc2c(n1)N(CCCN1CCN(C(=O)C=C)CC1)C(=O)N(c1cc(OC)cc(OC)c1)C2"
  recorded_value: 727

###

# assayed_target: FGFR3 (Homo sapiens)
# Sequence (P22607 450-758): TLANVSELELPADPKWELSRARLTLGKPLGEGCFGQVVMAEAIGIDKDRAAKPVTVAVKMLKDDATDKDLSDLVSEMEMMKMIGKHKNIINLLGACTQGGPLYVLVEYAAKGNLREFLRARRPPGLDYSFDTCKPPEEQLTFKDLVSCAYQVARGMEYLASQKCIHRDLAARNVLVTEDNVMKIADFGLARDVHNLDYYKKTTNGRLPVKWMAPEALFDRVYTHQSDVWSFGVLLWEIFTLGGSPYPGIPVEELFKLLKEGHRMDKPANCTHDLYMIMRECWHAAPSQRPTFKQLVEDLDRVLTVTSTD
# assay_overview: Kinase inhibition assay (ADP-Glo)
pIC50: −log10 of the molar value.
quantity: pIC50

- compound: "C=CC(=O)Nc1ccccc1Nc1ncc2c(n1)N(CCCN1CCN(C(=O)C=C)CC1)C(=O)N(c1cc(OC)cc(OC)c1)C2 [CXF-009]"
  quantity: "pIC50"
  recorded_value: 6.01

###

# assay_overview: In vitro plasma stability study
# Type: in vitro ADME
# conditions: human plasma, 37°C, 2 µg/mL; read-out: in vitro t1/2 (converted)

- smiles_record: "C=CC(=O)Nc1ccccc1Nc1ncc2c(n1)N(CCCN1CCN(C(=O)C=C)CC1)C(=O)N(c1cc(OC)cc(OC)c1)C2"
  half-life at 2 µg/mL / h: 3.73

###

# assay_overview: In vitro plasma stability study
# Format: in vitro ADME
# conditions: rat plasma, 37°C, 2 µg/mL; read-out: in vitro t1/2 (converted)

- smiles_record: "C=CC(=O)Nc1ccccc1Nc1ncc2c(n1)N(CCCN1CCN(C(=O)C=C)CC1)C(=O)N(c1cc(OC)cc(OC)c1)C2"
  half-life at 2 µg/mL [h]: 4.99

###

# assayed_target: UniProt P11362
# Sequence (P11362 456-765): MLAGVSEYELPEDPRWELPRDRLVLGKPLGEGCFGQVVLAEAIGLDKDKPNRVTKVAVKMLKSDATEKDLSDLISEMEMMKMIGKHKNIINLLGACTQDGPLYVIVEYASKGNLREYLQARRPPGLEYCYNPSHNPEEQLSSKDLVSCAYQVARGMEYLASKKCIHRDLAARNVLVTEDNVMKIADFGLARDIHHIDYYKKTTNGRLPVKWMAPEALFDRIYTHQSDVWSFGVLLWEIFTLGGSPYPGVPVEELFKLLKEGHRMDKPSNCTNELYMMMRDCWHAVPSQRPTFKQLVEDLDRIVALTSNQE
# assay_overview: Kinase inhibition assay (ADP-Glo)
pIC50: −log10 of the molar value.

- molecule: "C=CC(=O)Nc1ccccc1Nc1ncc2c(n1)N(CCCN1CCN(C(=O)C=C)CC1)C(=O)N(c1cc(OC)cc(OC)c1)C2 [CXF-009]"
  assayed_target: "UniProt P11362"
  pIC50: 5.59

Ref: paper PMC9814781
